# tested_on: Melanin-concentrating hormone receptor 1 (Homo sapiens)
# experimental_details: Antagonist activity at human MCHR1 by [35S]GTP-gamma-S binding assay
experimental_endpoint: pIC50
Just so you know, pIC50 here is -log10 of the concentration in molar units; reply with that number alone.

CN(C(=O)N1CC[C@H](n2cnc3cc(-c4ccc(Cl)cc4)sc3c2=O)C1)[C@H]1CCN(CC2CCOC2)C1 (stereo not given in full); 8.00

Turning now to a further record.
Prompt: Query pIC50 for "CN(C(=O)N1CC[C@H](n2cnc3cc(-c4ccc(Cl)cc4)sc3c2=O)C1)[C@H]1CCN(CC2CCOCC2)C1"
Completion: 7.96

---

# tested_on: Melanin-concentrating hormone receptor 1 (Homo sapiens, UniProt Q99705)
# Sequence (Q99705 whole entry): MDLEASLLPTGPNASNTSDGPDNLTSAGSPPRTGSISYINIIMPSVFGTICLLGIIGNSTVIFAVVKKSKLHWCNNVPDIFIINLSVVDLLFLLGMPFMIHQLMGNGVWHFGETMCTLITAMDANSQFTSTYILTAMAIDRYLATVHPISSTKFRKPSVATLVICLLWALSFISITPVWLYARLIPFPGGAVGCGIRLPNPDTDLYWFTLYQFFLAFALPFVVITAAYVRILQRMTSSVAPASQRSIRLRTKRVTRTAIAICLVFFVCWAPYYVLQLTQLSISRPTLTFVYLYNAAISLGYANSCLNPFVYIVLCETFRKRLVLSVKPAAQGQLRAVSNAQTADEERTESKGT
Group membership follows Ki per the scheme band A = under 5 nM, band B = from 5 nM up to 20 nM, band C = 20 nM and over

Past entries and their recorded results:
CN(C(=O)N1CC[C@H](n2cnc3cc(-c4ccc(Cl)cc4)sc3c2=O)C1)[C@H]1CCN(Cc2ccoc2)C1; band A
COc1ccc(-c2cc3ncn([C@H]4CCN(C(=O)N(C)[C@H]5CCN(C)C5)C4)c(=O)c3s2)c(C)c1; band C
CN(C(=O)N1CC[C@H](n2cnc3cc(-c4ccc(Cl)cc4)sc3c2=O)C1)[C@H]1CCN(CC2CCCCC2)C1; band C
Cc1ccc(-c2cc3ncn([C@H]4CCN(C(=O)N(C)[C@H]5CCN(C)C5)C4)c(=O)c3s2)c(C)c1; band C
CN1CC[C@H](N(C)C(=O)N2CC[C@H](n3cnc4cc(-c5ccc(C(F)(F)F)cc5)sc4c3=O)C2)C1; band B
CN(C(=O)N1CC[C@H](n2cnc3cc(-c4ccc(Cl)cc4)sc3c2=O)C1)[C@H]1CCN(CC2CCOC2)C1 (stereo not given in full); band A

Prompt: Lab log: "CN(C(=O)N1CC[C@H](n2cnc3cc(-c4ccc(Cl)cc4)sc3c2=O)C1)[C@H]1CCN(CCCc2ccccc2)C1" — assign Ki category
Completion: band B

Prompt: Lab log: "CN(C(=O)N1CC[C@H](n2cnc3cc(-c4ccc(Cl)cc4)sc3c2=O)C1)[C@H]1CCN(CC(=O)C(C)(C)C)C1" — assign Ki category
Completion: band B

Prompt: Lab log: "CN(C(=O)N1CC[C@H](n2cnc3cc(-c4ccc(OC(F)(F)F)cc4)sc3c2=O)C1)[C@H]1CCN(C2CCOCC2)C1" — assign Ki category
Completion: band B

Prompt: Lab log: "CN(C(=O)N1CC[C@H](n2cnc3cc(-c4ccc(Cl)cc4)sc3c2=O)C1)[C@H]1CCNC1" — assign Ki category
Completion: band B

Prompt: Lab log: "CN(C(=O)N1CC[C@H](n2cnc3cc(-c4ccc(Cl)cc4)sc3c2=O)C1)[C@H]1CCN(C2CCC2)C1" — assign Ki category
Completion: band A

Prompt: Lab log: "CCc1ccc(-c2cc3ncn([C@H]4CCN(C(=O)N(C)[C@H]5CCN(C6CCOCC6)C5)C4)c(=O)c3s2)cc1" — assign Ki category
Completion: band B

Prompt: Lab log: "CN(C(=O)N1CC[C@H](n2cnc3cc(-c4ccc(Cl)cc4)sc3c2=O)C1)[C@H]1CCN(CC2CCOCC2)C1" — assign Ki category
Completion: band B

---

# tested_on: UniProtKB P10635
# Sequence (P10635 whole entry): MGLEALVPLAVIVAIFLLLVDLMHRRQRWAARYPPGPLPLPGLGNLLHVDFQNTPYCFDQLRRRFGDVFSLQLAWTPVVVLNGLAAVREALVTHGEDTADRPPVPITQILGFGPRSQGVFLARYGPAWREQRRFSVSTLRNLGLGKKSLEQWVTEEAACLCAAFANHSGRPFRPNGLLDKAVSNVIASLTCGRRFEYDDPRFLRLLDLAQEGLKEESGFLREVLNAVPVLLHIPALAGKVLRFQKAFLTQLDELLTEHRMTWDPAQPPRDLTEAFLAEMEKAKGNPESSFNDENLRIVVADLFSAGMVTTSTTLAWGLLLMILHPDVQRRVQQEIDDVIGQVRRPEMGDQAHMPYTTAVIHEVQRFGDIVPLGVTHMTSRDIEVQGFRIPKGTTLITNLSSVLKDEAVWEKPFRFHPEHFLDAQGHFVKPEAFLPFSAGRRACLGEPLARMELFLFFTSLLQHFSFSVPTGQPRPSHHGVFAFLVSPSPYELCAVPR
experimental_endpoint: IC50 (µM)
I only need the number, in µM, no unit after it.

Prompt: Report its IC50 with UniProtKB P10635 as the test system: "CN(C(=O)N1CC[C@H](n2cnc3cc(-c4ccc(Cl)cc4)sc3c2=O)C1)[C@H]1CCN(CCCc2ccccc2)C1"
Completion: 8.6
